Molecular target: CDK2/CycE (Homo sapiens, UniProt P24941)
Construct: GST; purchased ProQinase GmbH (Freiburg, Germany); host or cells: insect cells (Sf9)
Experiment: CDK2/CycE kinase assay (TR-FRET)
Assay type: biochemical
Settings: avg, read-out: CDK2 avg (IC50 [mol/l])
pIC50: −log10 of the molar value.
pIC50 values for the molecules below.

1. Cc1nsc(Nc2cnc(C(F)(F)F)cn2)c1C(=O)Nc1ccc(N2CCN(CC(F)F)CC2)cn1    < 4.70
2. Cc1nsc(Nc2cnc(C(F)(F)F)cn2)c1C(=O)Nc1ccc(F)c(OCCCNCC(F)(F)F)c1    ≤ 4.70
3. Cc1nsc(Nc2ccc(C#N)cn2)c1C(=O)Nc1ccc(F)c(C(N)=O)c1    < 4.70
4. Cc1nsc(Nc2cnc(C(F)(F)F)cn2)c1C(=O)Nc1ccc(OCC2CCN(CCC(F)(F)F)C2)nc1 (stereo not shown)    ≤ 4.70
5. Cc1nsc(Nc2cnc(C(F)(F)F)cn2)c1C(=O)Nc1ccc(OCCCN(C)CC(F)F)nc1    ≤ 4.70

Test item "Cc1nsc(Nc2cnc(C(F)(F)F)cn2)c1C(=O)Nc1ccc(C(=O)N2CCN(C)CC2)cc1" ; CDK2/CycE (Homo sapiens, UniProt P24941); reported pIC50 was < 4.70

----------
Target: CDK2/CycE (Homo sapiens)
Construct: GST; purchased ProQinase GmbH (Freiburg, Germany); host or cells: insect cells (Sf9)
Assay: CDK2/CycE kinase assay (TR-FRET)
Format: biochemical
Conditions: avg, read-out: CDK2 avg (IC50 [mol/l])
Experimental: CDK2/CycE -inhibitory activity of compounds of the present invention was quantified employing the CDK2/CycE TR-FRET assay as described in the following paragraphs. […] The resulting mixture was incubated 1 h at 22° C. to allow the formation of complex between the phosphorylated biotinylated peptide and the detection reagents. Subsequently the amount of phosphorylated substrate was evaluated by measurement of the resonance energy transfer from the Eu-chelate to the streptavidine-XL. […]
MEASURED METRIC: IC50

See these solved cases before continuing.
1. Cc1nsc(Nc2cnc(C(F)(F)F)cn2)c1C(=O)Nc1ccc(OCCCO)nc1 [Example 279]    > 20 µM
2. CCN1CCN(C(=O)c2ccc(NC(=O)c3c(C)nsc3Nc3cnc(C(F)(F)F)cn3)cc2)CC1 [Example 261]    > 20 µM
3. Cc1nsc(Nc2cnc(C(F)(F)F)cn2)c1C(=O)Nc1ccc(O[C@@H]2CCN(CCC(F)(F)F)C[C@H]2F)nc1 [Example 368]    > 20 µM
4. CCN1CCC(Oc2ccc(NC(=O)c3c(C)nsc3Nc3cc(C#N)ccn3)cn2)CC1 [Example 26]    ≥ 20 µM

Test item COC(=O)c1cccc(NC(=O)c2c(C)nsc2Nc2cnc3ccccc3n2)c1 [Example 50] ; CDK2/CycE (Homo sapiens); reported IC50 was ≥ 20 µM

Test item Cc1nsc(Nc2cnc(C(F)(F)F)cn2)c1C(=O)Nc1ccc(OCCNCC(F)F)nc1 [Example 305] ; CDK2/CycE (Homo sapiens); reported IC50 was ≥ 20 µM

Test item Cc1nsc(Nc2cnc(C(F)(F)F)cn2)c1C(=O)Nc1ccc(F)c(O[C@H]2CCN(CC(F)(F)F)C2)c1 [Example 416] ; CDK2/CycE (Homo sapiens); reported IC50 was > 20 µM

Test item Cc1nsc(Nc2cncc(C(F)(F)F)n2)c1C(=O)Nc1ccc(C(=O)NCCN2CCCC(F)C2)cc1 (stereo not drawn) [Example 155] ; CDK2/CycE (Homo sapiens); reported IC50 was 4.1 µM

Test item Cc1nsc(Nc2cnc(C(F)(F)F)cn2)c1C(=O)Nc1ccc(OC2CCCN(C(CF)CF)C2)nc1 (stereo not drawn) [Example 333] ; CDK2/CycE (Homo sapiens); reported IC50 was ≥ 20 µM
